Source: paper PMC9482650

biological target: MAGI3_4, Q5TCQ9; experiment: holdup assay; design: key: below the threshold = too weak to quantify, mostly under pKd 3.1 to 4; details: plain residues with an end cap or a label only (N-terminal biotin on a linker: ttds)
Sequence (Q5TCQ9 716-815): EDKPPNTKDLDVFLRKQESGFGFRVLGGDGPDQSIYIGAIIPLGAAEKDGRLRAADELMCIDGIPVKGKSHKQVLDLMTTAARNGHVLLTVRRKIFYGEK
Endpoint: pKd

Example cases with answers are listed next.
Binder	Data Value
RLPKIKETTV [FRMPD4, Q14CM0]	below the threshold
RHTTSTETAV [HPV30-E6, P36809]	below the threshold
SKPTRRETEV [HPV35-E6, P27228]	3.76
SSLQSLETSV [ATP2B4, P23634]	below the threshold
RPLPRKVSQL [DOCK4, Q8N1I0]	4.12

Please report the measured pKd for QRQARSETLV [HPV59-E6, Q81964] below the threshold

Please report the measured pKd for RLQRRRETQV [HPV18-E6, P06463] below the threshold

Please report the measured pKd for SGSRPSATVV [HPV73-E6, Q82005] below the threshold
